target: benzodiazepin recognition sites in a membrane preparation from rat brain; assay: 3H-Flunitrazepam binding (displacement from benzodiazepine recognition sites; anxiolytic activity); conditions: rat cerebral cortex membranes; 2 nM 3H-flunitrazepam; pH 6.9; 20 minutes at 0-4 °C; log-probit analysis
Kindly supply the reported IC50 values for the records listed here.
Numbers only, in nM.

CCn1ncc2c3noc(-c4ccc(Cl)cc4)c3cnc21 | 400
CCn1ncc2c3noc(-c4ccccc4OC)c3cnc21 | 2000
CCn1ncc2c3noc(-c4ccccc4)c3cnc21 | 470
CCn1ncc2c3noc(-c4ccc(OC)cc4)c3cnc21 | 1200

Okay, here is my list. What is IC50 for each of these?
1. CNC1=Nc2ccc(Cl)cc2C(c2ccccc2)=[N+]([O-])C1 [Chlordiazepoxide, reference compound]
2. CCn1ncc2c3noc(-c4cccc(F)c4)c3cnc21
3. CCn1ncc2c3noc(-c4ccc(F)cc4)c3cnc21
4. CCn1ncc2c3noc(-c4ccc(C)cc4)c3cnc21
5. CCn1ncc2c3noc(-c4cccc(Cl)c4)c3cnc21

Result block:
340
2300
530
990
4400
